# assayedTarget: T1, AnkB MBD 'site-2' mutant (Ile267Gln, Leu300Gln) (human, UniProt Q01484-2 28-847, Ile267Gln | Leu300Gln)
# T1 sequence: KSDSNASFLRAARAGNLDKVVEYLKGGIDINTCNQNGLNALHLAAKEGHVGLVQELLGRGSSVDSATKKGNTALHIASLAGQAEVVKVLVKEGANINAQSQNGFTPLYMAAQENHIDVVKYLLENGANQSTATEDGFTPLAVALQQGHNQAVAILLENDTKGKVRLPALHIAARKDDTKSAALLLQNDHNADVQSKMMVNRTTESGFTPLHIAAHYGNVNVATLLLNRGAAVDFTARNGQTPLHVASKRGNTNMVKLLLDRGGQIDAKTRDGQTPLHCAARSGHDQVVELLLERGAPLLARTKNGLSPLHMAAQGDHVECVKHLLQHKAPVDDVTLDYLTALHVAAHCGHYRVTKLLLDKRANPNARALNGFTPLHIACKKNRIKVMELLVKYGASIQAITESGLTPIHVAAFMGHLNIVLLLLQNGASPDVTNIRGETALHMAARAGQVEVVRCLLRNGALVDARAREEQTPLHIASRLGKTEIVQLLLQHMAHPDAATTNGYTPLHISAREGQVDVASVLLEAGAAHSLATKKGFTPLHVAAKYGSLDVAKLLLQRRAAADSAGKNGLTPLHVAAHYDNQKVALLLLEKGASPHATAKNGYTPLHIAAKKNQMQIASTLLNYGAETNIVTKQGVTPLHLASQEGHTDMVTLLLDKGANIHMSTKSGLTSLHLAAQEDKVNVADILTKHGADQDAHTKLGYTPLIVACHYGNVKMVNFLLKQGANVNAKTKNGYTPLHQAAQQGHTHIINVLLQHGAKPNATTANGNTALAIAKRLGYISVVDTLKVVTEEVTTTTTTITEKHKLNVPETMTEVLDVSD
# assayNotes: ITC
measuredMetric: pKd
Give bare numbers, as −log10 of the molar value.

query: What measured pKd goes with EDLKELGDDSLPSSQFLDGMNYLRYSLEGGRS (domain or fragment) [AnkB_AI-b (aa 865–896)] ?
result: 5.07
